biological target: human recombinant LSD1 (Homo sapiens); construct: purchased Cayman Chemical Item #700120; experiment: LSD1 inhibitor screening assay (Cayman Chemical kit, fluorometric); format: biochemical; details: 10 μM compound; synthetic analogues of C1, Table 2
Recorded inhibition at 10 µM values for a group of compounds are listed next.
Recorded metric: inhibition at 10 µM (%)

CCOc1cc(C)ccc1Oc1ccccc1CNc1nc(N)n[nH]1    73.8
COc1cccc(Cl)c1CNc1nc(N)n[nH]1    73.1
Nc1nnc(NCc2c(Cl)cccc2Oc2ccc3c(c2)OCO3)[nH]1    65.8
Nc1nnc(NCc2c(Cl)cccc2Oc2cc(C(F)(F)F)cc(C(F)(F)F)c2)[nH]1    44.9
COc1cc(Oc2cccc(Cl)c2CNc2nc(N)n[nH]2)cc(OC)c1OC    67.6

---

target: human recombinant LSD1 (Homo sapiens, UniProt O60341); construct: purchased Cayman Chemical Item #700120; assay: LSD1 inhibitor screening assay (Cayman Chemical kit, fluorometric); assay type: biochemical; settings: 10 μM compound; Chembridge analogues table
Recorded inhibition at 10 µM values for a group of compounds are listed next.
Recorded metric: inhibition at 10 µM (%)

COc1cccc(CNc2nnc[nH]2)c1OCc1ccccc1Cl    18.1
Clc1ccc(OCc2ccccc2)c(CNc2nn[nH]n2)c1    19.9
COc1ccccc1CNc1n[nH]c(NCc2ccccc2OC)n1    74.9
COc1cccc(CNc2nn[nH]n2)c1OCc1ccccc1Cl    22.1
Cc1ccc(COc2ccc(Cl)cc2CNc2nn[nH]n2)cc1    6.9

---

target: human recombinant LSD1 (Homo sapiens, UniProt O60341); construct: purchased Cayman Chemical Item #700120; experiment: LSD1 inhibitor screening assay (Cayman Chemical kit, fluorometric); format: biochemical; conditions: 10 μM compound; synthetic analogues of C1, Table 2
Criterion: inhibition at 10 µM meeting or surpassing 70%. Met: true. Not met: false.

Nc1n[nH]c(NCc2ccccc2Oc2cccc3ccccc23)n1    true
COc1ccc(Sc2cccc(Cl)c2CNc2nnc(N)[nH]2)cc1OC    false
Nc1nnc(NCc2ccccc2)[nH]1    false
Cc1ccc(C(C)C)c(Oc2cccc(Cl)c2CNc2nnc(N)[nH]2)c1    false
COc1cc(C)ccc1Oc1cccc(Cl)c1CNc1nnc(N)[nH]1    true
Nc1n[nH]c(NCc2c(Cl)cccc2Oc2ccc(F)cc2)n1    true
CC(C)(C)c1ccc(Oc2cccc(Cl)c2CNc2nnc(N)[nH]2)cc1    false
COc1cc(Oc2ccccc2CNc2nc(N)n[nH]2)cc(OC)c1OC    false
COc1cccc(Oc2cccc(Cl)c2CNc2nnc(N)[nH]2)c1    false
Nc1n[nH]c(NCc2c(Cl)cccc2Oc2ccc(-c3ccccc3)cc2)n1    false
Cc1ccc(Oc2cccc(Cl)c2CNc2nnc(N)[nH]2)cc1    false
Nc1n[nH]c(NCc2c(Cl)cccc2Oc2cccc3ccccc23)n1    true
Nc1n[nH]c(NCc2c(Cl)cccc2Oc2cccc3cc[nH]c23)n1    false
Nc1nnc(NCc2c(Cl)cccc2Oc2ccc(Br)cc2C(F)(F)F)[nH]1    false
COc1cc(OC)cc(Oc2cccc(Cl)c2CNc2nnc(N)[nH]2)c1    false
CCOc1cc(C)ccc1Oc1cccc(Cl)c1CNc1nc(N)n[nH]1    true
Cc1ccccc1Oc1cccc(Cl)c1CNc1nnc(N)[nH]1    true
